test system: E18 rat cortical neuron-glia co-culture; assay: fiber score / MBP score (myelination specific beyond OL differentiation) (ratio); higher = more myelination-specific MBP alignment; conditions: 1 µM; treatment time: 8 days (DIV5-DIV13);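 further: MBP fiber length per Olig2+ nucleus over MBP area × intensity per Olig2+ nucleus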
measurement.kind: fiber score / MBP score

• CC[C@H](C)C(=O)O[C@H]1C[C@H](O)C=C2C=C[C@H](C)[C@H](CC[C@@H](O)C[C@@H](O)CC(=O)O)[C@H]21 = 0.899
• C#C[C@]1(OC(C)=O)CC[C@H]2[C@@H]3CCC4=CC(=O)CC[C@@H]4[C@H]3CC[C@@]21C [Norethisterone acetate] = 0.907
• CC1=C(C/C=C(\C)CCC[C@H](C)CCC[C@H](C)CCCC(C)C)C(=O)c2ccccc2C1=O = 0.894
• CCCCCCCCCCC[C@@H](C[C@@H]1OC(=O)[C@H]1CCCCCC)OC(=O)[C@H](CC(C)C)NC=O = 0.69
• CCCc1nc2c(C)cc(-c3nc4ccccc4n3C)cc2n1Cc1ccc(-c2ccccc2C(=O)O)cc1 = 0.729
• CO/N=C(\C(=O)N[C@@H]1C(=O)N2C(C(=O)O)=C(COC(N)=O)CS[C@H]12)c1ccco1 = 0.749
• CC(C)[N+]1(C)[C@@H]2CC[C@H]1C[C@@H](OC(=O)C(CO)c1ccccc1)C2 (some centres not stated) = 0.783
• CC(C)NCC(O)COc1ccc(CC(N)=O)cc1 (configuration not stated) = 1.03
• CCCNC(=O)NS(=O)(=O)c1ccc(Cl)cc1 [Chlorpropamide] = 0.614
• CC(C)C(=O)Nc1ccc([N+](=O)[O-])c(C(F)(F)F)c1 [Flutamide] = 0.826
• CC1(C)S[C@@H]2[C@H](/N=C/N3CCCCCC3)C(=O)N2[C@H]1C(=O)O = 0.728
• CC(CN1c2ccccc2Sc2ccccc21)N(C)C (configuration not stated) = 0.678
• Oc1c(Cl)cc(Cl)c2cccnc12 = 2.26
• O=C(O)c1cc(/N=N/c2ccc(S(=O)(=O)Nc3ccccn3)cc2)ccc1O = 0.823
• Cc1cnc(NC(=O)C2=C(O)c3ccccc3S(=O)(=O)N2C)s1 = 0.958
• OC(Cn1cncn1)(Cn1cncn1)c1ccc(F)cc1F = 0.906
• CC(C)NCC(O)c1ccc(O)c(O)c1 (configuration not stated) = 0.965
